Biological target: T1, human DLL3 on cells (human, UniProt Q9NYJ7 27-618)
T1 construct: Endogenous on H1184 and SHP77; Cell line is named under assay; also called H1184; DLL3/H82
T1 sequence: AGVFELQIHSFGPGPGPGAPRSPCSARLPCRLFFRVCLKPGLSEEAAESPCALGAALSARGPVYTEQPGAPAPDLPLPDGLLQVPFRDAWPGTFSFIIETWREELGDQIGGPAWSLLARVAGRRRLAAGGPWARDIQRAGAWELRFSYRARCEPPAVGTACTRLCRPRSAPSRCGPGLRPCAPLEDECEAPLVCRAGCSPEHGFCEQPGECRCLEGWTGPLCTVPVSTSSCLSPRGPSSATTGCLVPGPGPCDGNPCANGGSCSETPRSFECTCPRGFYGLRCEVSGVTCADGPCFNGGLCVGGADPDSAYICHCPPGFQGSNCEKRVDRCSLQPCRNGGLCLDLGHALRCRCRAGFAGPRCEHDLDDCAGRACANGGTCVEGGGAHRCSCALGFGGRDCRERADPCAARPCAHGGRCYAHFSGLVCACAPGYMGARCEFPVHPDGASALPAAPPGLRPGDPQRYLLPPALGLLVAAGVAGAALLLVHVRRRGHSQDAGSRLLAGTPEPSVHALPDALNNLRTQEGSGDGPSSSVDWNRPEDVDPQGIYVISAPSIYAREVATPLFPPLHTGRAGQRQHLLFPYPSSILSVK
Assay: flow cytometry, DLL3/H82 cells
The following binders are shown together with reported pEC50 values.
API: returns pEC50 as number; meaning -log10 of concentration in mol/L.

Consider the following illustrative entries.
INSERT INTO assay_data (binder, property, endpoint_result) VALUES
  ('hu30L2H4 (antibody, human IgG1, kappa, V domains shown) VH: EVRLVQSGAEVKKPGASVKVSCKASGYTFTDYYMNWVRQAPGQSLEWMGIINPYSGDTSYNQKFRGRVTLTVDKSASTAYMELSSLRSEDTAVYYCARYHYGPHLEGYFDVWGQGTTVTVSS VL: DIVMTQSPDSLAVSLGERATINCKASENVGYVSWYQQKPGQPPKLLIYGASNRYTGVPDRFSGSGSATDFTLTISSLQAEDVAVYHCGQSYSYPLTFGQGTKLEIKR', 'pEC50', 9.27),
  ('hu30L2H1 (antibody, human IgG1, kappa, V domains shown) VH: EVQLVQSGAEVKKPGASVKVSCKASGYTFTDYYMNWVRQAPGQSLEWMGIINPYNGDTSYNQKFRGRVTITVDKSASTAYMELSSLRSEDTAVYYCARYHYGPHLEGYFDVWGQGTTVTVSS VL: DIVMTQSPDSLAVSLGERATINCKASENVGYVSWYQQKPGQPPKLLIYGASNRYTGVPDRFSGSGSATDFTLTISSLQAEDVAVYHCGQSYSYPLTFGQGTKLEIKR', 'pEC50', 9.05),
  ('hu30L3H4 (antibody, human IgG1, kappa, V domains shown) VH: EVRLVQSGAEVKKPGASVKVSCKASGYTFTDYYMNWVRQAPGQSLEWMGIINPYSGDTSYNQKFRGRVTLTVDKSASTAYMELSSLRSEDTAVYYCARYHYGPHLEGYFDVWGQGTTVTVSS VL: DIVMTQSPKSLAVSLGERATINCKASENVGYVSWYQQKPGQSPKLLIYGASNRYTGVPDRFSGSGSATDFTLTISSLQAEDVAVYHCGQSYSYPLTFGQGTKLEIKR', 'pEC50', 9.37),
  ('hu30L2H6 (antibody, human IgG1, kappa, V domains shown) VH: EVRLVQSGAEVKKPGASVKVSCKASGYTFTDYYMNWVRQAPGQSLEWMGIINPYNVDTSYNQKFRGRVTLTVDKSASTAYMELSSLRSEDTAVYYCARYHYGPHLEGYFDVWGQGTTVTVSS VL: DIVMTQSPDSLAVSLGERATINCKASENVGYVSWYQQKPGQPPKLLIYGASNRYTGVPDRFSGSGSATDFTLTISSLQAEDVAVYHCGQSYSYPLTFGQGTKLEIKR', 'pEC50', 9.16);

Let's switch to this binder now.
Req: What pEC50 value was documented for this binder, hu30L3H6 (antibody, human IgG1, kappa, V domains shown) VH: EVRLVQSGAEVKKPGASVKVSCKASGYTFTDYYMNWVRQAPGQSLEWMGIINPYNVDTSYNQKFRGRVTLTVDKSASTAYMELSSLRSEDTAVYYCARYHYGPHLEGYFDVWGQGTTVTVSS VL: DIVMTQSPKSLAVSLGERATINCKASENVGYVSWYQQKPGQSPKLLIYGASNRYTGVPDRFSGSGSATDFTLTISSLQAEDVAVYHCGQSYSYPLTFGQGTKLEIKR ?
Resp: 9.34
